Collected pIC50 values appear next to each entry.
Target: HLA-DR DRB1*0901 (DR9) (Homo sapiens, UniProt P01903+P01911, A100R/A103E/D57H/D86V/F55Y/F60I/F76Y/I96F/K127E/L162R/M171V/P40D/Q125H/Q99R/R33Q/R42F/S133A/S66N/T210M/V115G/W38K/Y107V/Y59G/Y89S)
Assay: biochemical
Assay type: binding
Conditions: DRB1 *0901
pIC50: −log10 of the molar value. No end group written: not given here.
REPORTED PROPERTY: pIC50

In [3]: df
Out[3]:
                     sequence_content  censoring_sign  value_reported
 0  FVNQHLCGSHLVEAL [FVNQHLCGSHLVEAL]               <            4.20
 1                    QDYVLDLQPEATDLH               <            4.40
 2                     TSITSLYQLENYTN               =            5.00
 3                    QWVLTAAHCLKKNSQ               =            5.32
 4                    TCVLGKLSQELHKLQ               =            4.75
 5                    QDVVLELTPQTEIDL               =            5.77
 6                   FLRIVQTRSVEGSTGF               =            6.11
 7                    MSYNLLGFLQRSSNT               =            5.05
 8                    SWLEPVQFLRSVFAN               =            5.40
 9                    ALLKNYGLLYTFRKD               =            5.58
10                    LRMMNDQLMFLERAF               =            5.34
11                    YYDYSVYGATLESIT               =            5.85
12                    VYDFAFADLTVVYRE               =            6.81
13                    LTELYFEKGEYFVEM               =            4.57
14                    FVVYRDSIPHAACHK               =            5.67
15                    GVILYSDPADYFAPG               =            5.61
16                    NSLVYGASDSNIYDL               <            4.23
17                    FPDWQNYTPGPGTRF               =            5.52
18                  RLRIVRGTQLFEDNYAL               =            5.74
19                    DLRVVQQLLMGALTV               =            5.73
20                    TTVLGKLSQELHKLQ               =            4.62
21                    DLFVVYRDSIPHAAC               =            5.62
22                    VFEFAFKDLFVVYRD               =            4.77
23                    RVPVSHSFPHPLYNM               =            7.01
24                    DFSYLQDSDPDSFQD               <            3.97
25                    YLVCGERGFLYTPKT               =            6.91
26                    LKLVYRDDFPYAVCR               =            4.73
27                    ICLLLIQSWLEPVQF               <            4.23
28                    DFAFTDLTIVYRDDT               =            5.84
29                    VPTLQDVVLELTPQT               <            4.51
30                    IDGVNHQHLPARRAE               <            4.40
31                    LWQLNGRLEYTLKDR               =            4.78
32                    EVFFQRLGIASGRAR               =            5.53
33                    SDSNIYDLLKDLEEG               =            4.30
34                    ALSTLVLNRLKVGLQ               =            5.66
35                    RETLQEIVLHLEPQN               =            4.72
36                    LRTLQQMLLGTLQVV               =            5.29
37                    LLYTFRKDMDKVETF               <            4.23
38                    VQQLLMGALTVTCPL               =            6.74
39                    RQEILDLWVYHTQGF               =            5.43
40                    RIVYRDGNPFAVCKV               =            5.30
41                    QLAFDTYQEFEQNPQ               <            4.23
42                    GRAVCGGVLVHPQWV               =            5.09
43                    VNFYAWKRMEVGQQA               =            5.91
44                    KLSQELHKLQTYPRT               =            4.72
45                    QHLTGSHLVEALYLV               =            4.37
46                    GSHLVEALYLVCGER               =            5.27
47                         ALWRVSAEEY               =            6.16
48                    VEALYLVCGERGFLY               =            5.51
49  NMSLLKHQSLRPDED [NMSLLKHQSLRPDED]               =            4.01
50                    KEYVLDLYPEPTDLY               <            4.30
51                    PEEFLRPRSLQCVSL               =            5.23
52                    KDYILDLQPETTDLH               <            4.30
53                    GKVFRGNKVKNAQLA               =            4.50
54                    LHLLSNDMCARAYSE               =            4.22
55                    WYRYSVYGTTLEKLT               =            6.55
56                    YLVTGERGFFYTDKT               =            5.54
57                    VEALYLVTGERGFFY               =            6.17
